- ASSAY_PROCEDURE: inhibitors of Toxoplasma growth in IFN-γ-primed HeLa – cell-based, ME49Luc, luciferase, 72 h, dose response (AID 1259418)
- CONDITION_DETAILS: T. gondii ME49Luc in IFN-y HeLa, active compounds read low, -100% = high-dose IFN-γ control wells; at 19.5 µM unless noted
Screen size: about 3,400 compounds; about 840 (25%) were called active. Not shown: some 11% with an inconclusive outcome. The list is a sample of the results. Potency and affinity values are given separately.
ASSAY_READOUT: max activity

                                   molecule                       observed
0  Cc1ccc(CCNC(=O)CCC2Nc3c4ccccc4nc(=S)n3C2=O)cc1 (stereo not given)    13.4% [at 10 µM] (inactive)
1  Cc1cccc(C(=O)Nc2c(C(=O)N3CCN(c4ccccn4)CC3)[nH]c3ccc(C)cc23)c1    -10.7% [at 5 µM] (inactive)
2  O=C(NC1CCCC1)[C@H]1[C@H](CO)[C@H]2Cn3c(ccc(C4=CCCCC4)c3=O)[C@@H]1N2CC1CC1    28.5% [at 10 µM] (inactive)
3  CCC(CC)C(=O)N1CCC2(CC1)Nc1ccc(Cl)cc1-n1cccc12  9.15% [at 0.68 µM] (inactive)
4  COc1ccccc1-c1noc(-c2nnn(Cc3nc(-c4cccc(Cl)c4)oc3C)c2C)n1   9.3% [at 0.16 µM] (inactive)
5  CCOc1ccccc1-c1nc(CN(c2ccccc2OC)S(=O)(=O)c2ccc(C)cc2)c(C)o1              -6.32% (inactive)

Count: 6. Required value per item: max activity.
1. O=C1CCc2cc(S(=O)(=O)NCc3cccn3Cc3ccccc3F)ccc2N1
2. Cc1ccc(C)c(NC(=O)CN2CCC3(CC2)N=C(c2ccc(F)cc2)C(=O)N3)c1
3. CCn1cc(CN2CCCC2c2cc(C(C)C)on2)c2cc(OC)ccc21 (stereo not given)
4. Cc1ccccc1S(=O)(=O)N1CCCCN2[C@H](CO)[C@H](c3ccc(C#CCN(C)C)cc3)[C@H]2C1
5. COc1ccc(CC(=O)Nc2ccc(-c3nc(-c4cc(C)ccc4C)co3)cc2)cc1
6. Cc1ccc(-c2nc(CN3CCN(C(=O)Nc4cc(C)cc(C)c4)CC3)c(C)o2)cc1

1: 12.6% (inactive); 2: 21.8% [at 10 µM] (inactive); 3: 7.79% [at 2.6 µM] (inactive); 4: 23.7% (inactive); 5: 17.8% [at 0.16 µM] (inactive); 6: 9.49% [at 2.6 µM] (inactive)

Count: 8. Required value per item: max activity.
1. Cc1ccc(CNC(=O)Nc2ccc(-c3nc(-c4ccccc4)co3)cc2)cc1
2. O=C(CC1CCCCC1)N1CCC2(CC1)Nc1ccc(Cl)cc1-n1cccc12
3. CCc1nc(OCC(=O)Nc2c(C)cccc2C)c2ccccc2n1
4. Clc1ccc(-c2nc(N3CCC(Cc4ccccc4)CC3)c3ccccc3n2)cc1
5. CCOc1ccc(-c2nc(CN3CCN(C(=O)Nc4ccc(C)c(C)c4)CC3)c(C)o2)cc1
6. O=C(c1ccc(Cl)cc1)N1CCC2(CC1)Nc1ccc(Cl)cc1-n1cccc12
7. CCOc1ccc(NC(=O)Nc2ccc(-c3nc(-c4ccc(C)cc4C)co3)cc2)cc1
8. COc1ccc(CC(=O)N2CCC3(CC2)Nc2ccc(Cl)cc2-n2cccc23)cc1

1: 90.3% [at 10 µM] (inactive); 2: 7.76% [at 0.35 µM] (inactive); 3: 19.2% [at 0.35 µM] (inactive); 4: 11.8% (inactive); 5: 14.4% [at 0.35 µM] (inactive); 6: -6.42% [at 0.35 µM] (inactive); 7: 21.2% [at 0.16 µM] (inactive); 8: 5.66% [at 2.6 µM] (inactive)

Count: 5. Required value per item: max activity.
1. Cc1ccc(-c2nc(CN3CCN(C(=O)Nc4cc(Cl)ccc4C)CC3)c(C)o2)cc1
2. CC1CCN(c2nc(-c3ccc(Cl)cc3)nc3ccccc23)CC1
3. CCCCc1ccc(Nc2ncnc3c2cnn3-c2ccc(Cl)cc2)cc1
4. Cc1ccc(-c2coc(-c3ccc(NC(=O)Nc4ccc5c(c4)OCCO5)cc3)n2)c(C)c1
5. CCOc1ccccc1C(=O)N1CCC2(CC1)Nc1ccc(C)c(C)c1-n1cccc12

["11.2% [at 10 µM] (inactive)", "5% [at 10 µM] (inactive)", "-18.1% [at 5 µM] (inactive)", "48.2% (inactive)", "-6.2% [at 2.6 µM] (inactive)"]

* * *

- ASSAY_PROCEDURE: inhibitors of Toxoplasma growth in IFN-γ-primed HeLa – cell-based, ME49Luc, luciferase, 72 h, dose response (AID 1259418)
- CONDITION_DETAILS: T. gondii ME49Luc in IFN-y HeLa, active compounds read low, -100% = high-dose IFN-γ control wells; at 19.5 µM unless noted
The whole screen tested about 3,400 compounds, of which about 840 (25%) were called active. Inconclusive results (about 11%) are left out. Only a sample is shown. Entries with a potency or affinity are not part of this list.
ASSAY_READOUT: max activity

In [3]: df
Out[3]:
                                   compound          observed
0  Cc1ccc(CSC2=Nc3ccccc3C3=NC(CC(=O)NC4CCCCC4)C(=O)N23)cc1 (configuration not stated)  39.6% (inactive)

Count: 6. Required value per item: max activity.
1. Cc1ccc(-c2nc(Cn3nnc(-c4nc(-c5ccc6c(c5)OCO6)no4)c3C)c(C)o2)cc1
2. Cc1cc(C)c2c(=O)n(Cc3nc(-c4cccc(Cl)c4)oc3C)c(=O)n(-c3ccccc3)c2n1
3. Cc1cccc(OCC(=O)N2CSC[C@@H]2C(=O)NCCc2csc(-c3ccccc3)n2)c1
4. CN1C(=O)CCc2cc(NC(=O)C3CCCO3)ccc21 (configuration not stated)
5. Cc1ccc(NC(=O)N2CCN(Cc3nc(-c4ccccc4C)oc3C)CC2)cc1Cl
6. CCOc1ccc(-c2nc3c(s2)CN(S(=O)(=O)Cc2ccccc2)CC3)cc1

1. 17.5% [at 0.68 µM] (inactive)
2. -9.3% [at 0.16 µM] (inactive)
3. -20.7% [at 0.68 µM] (inactive)
4. 17.1% (inactive)
5. 14% [at 1.35 µM] (inactive)
6. -19.9% [at 0.16 µM] (inactive)

* * *

Give max activity for every item shown.
- ASSAY_PROCEDURE: inhibitors of Toxoplasma growth in IFN-γ-primed HeLa – cell-based, ME49Luc, luciferase, 72 h, dose response (AID 1259418)
- CONDITION_DETAILS: T. gondii ME49Luc in IFN-y HeLa, active compounds read low, -100% = high-dose IFN-γ control wells; at 19.5 µM unless noted
About 840 (25%) of roughly 3,400 compounds were called active. Not shown: some 11% with an inconclusive outcome. A selection follows. Results with a measured potency or affinity are listed apart.

Some solved entries appear below for comparison.
>>> print(df.to_string())
                                   compound  assay_readout                       observed
0  COCC(=O)N1CC(=O)N2[C@H](CO)[C@@H](c3ccc(-c4ccccc4F)cc3)[C@H]2C1   max activity               43.4% (inactive)
1  COCC(=O)N1CC(=O)N2[C@H](CO)[C@@H](c3ccc(-c4ccncc4)cc3)[C@H]2C1   max activity               45.2% (inactive)
2  CSc1cccc(NC(=O)CN2CCC3(CC2)N=C(c2ccc(F)cc2)C(=O)N3)c1   max activity               9.26% (inactive)
3  Cc1nc(CCNC(=O)[C@H]2CCCN2S(=O)(=O)c2ccc(F)cc2)cs1   max activity  18.1% [at 1.35 µM] (inactive)
4  Cc1cc(C2CCCN2Cc2cn(C(C)C)c3ccccc23)on1 (centres undefined)   max activity               5.01% (inactive)
5  Cc1nc(CCNC(=O)[C@H]2CCCN2S(=O)(=O)c2ccc(Cl)cc2)cs1   max activity  23.5% [at 0.16 µM] (inactive)
6  Cc1ccc(S(=O)(=O)N2CCC[C@@H]2C(=O)NCCc2csc(C)n2)cc1   max activity    7.86% [at 10 µM] (inactive)
7  CCc1cc2c(N3CCC(C(N)=O)(N4CCCCC4)CC3)ncnc2s1   max activity              -27.2% (inactive)
8        Cc1nc(OCC(=O)Nc2ccccc2C)c2ccccc2n1   max activity  19.6% [at 0.68 µM] (inactive)
9  O=C(c1ccc2c(=O)n(CCC3=CCCCC3)c(=S)[nH]c2c1)N1CCC(O)(c2cccc(C(F)(F)F)c2)CC1   max activity   -24.9% [at 10 µM] (inactive)

Count: 3. Required value per item: max activity.
1. Cc1nc2ccccc2n1CC(O)Cn1c2ccccc2c2ccccc21 (centres undefined)
2. CSc1cccc(NC(=O)COc2nc(C)nc3ccccc23)c1
3. N#Cc1cccc(-c2ccc(C3[C@@H]4CN(C(=O)Nc5ccc(C(F)(F)F)cc5)C[C@H]3N4)cc2)c1 (some centres undefined)

1: 28.9% (inactive); 2: 16.7% [at 5 µM] (inactive); 3: 16.9% [at 10 µM] (inactive)

Count: 5. Required value per item: max activity.
1. O=C(CCCCCn1c(=S)[nH]c2cc3c(cc2c1=O)OCO3)N1CCC(O)(c2cccc(C(F)(F)F)c2)CC1
2. O=C(CCC1N=C2c3ccccc3N=C(SCc3ccccc3Cl)N2C1=O)NCc1ccco1 (centres undefined)
3. NCCNC(=O)c1nc(-c2ccc(Br)o2)no1
4. O=C(NCCc1csc(-c2ccccc2)n1)C1CCN(C(=O)c2ccc(F)c(F)c2)CC1
5. O=C(Nc1ccc(-c2nc(-c3ccccc3)co2)cc1)Nc1cccc(F)c1

1: -29.1% [at 10 µM] (inactive); 2: 35.4% [at 10 µM] (inactive); 3: 8.96% [at 10 µM] (inactive); 4: 18% [at 5 µM] (inactive); 5: 13.5% (inactive)

Let me know recorded max activity for COc1cc(OC)cc(C(=O)N2CCC3(CC2)Nc2ccc(Cl)cc2-n2cccc23)c1 , thanks. -6.3% [at 5 µM] (inactive)

Source: PubChem BioAssay AID1259418
